B1: Hairpin Ribozyme (parent)
chain: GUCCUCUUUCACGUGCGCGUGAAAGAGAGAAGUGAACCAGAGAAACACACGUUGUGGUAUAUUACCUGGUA

# Variants of: B1
# protocol-summary: self-cleavage, relative activity (ratio to wild type); higher = more cleavage; co-transcriptional
Label True when self-cleavage is at or above 0.3; otherwise label False.

Tell me whether self-cleavage is at least 0.3 here: U7A A45G
False

Tell me whether self-cleavage is at least 0.3 here: G34U U67A
True

Tell me whether self-cleavage is at least 0.3 here: C48G U60A
False

Tell me whether self-cleavage is at least 0.3 here: C3A C10A
True

Tell me whether self-cleavage is at least 0.3 here: A23C C46A
False

Tell me whether self-cleavage is at least 0.3 here: A36U A49G
False

Tell me whether self-cleavage is at least 0.3 here: A44C G68A
False

Tell me whether self-cleavage is at least 0.3 here: G57C A59U
False

Tell me whether self-cleavage is at least 0.3 here: U2G C65A
True

Tell me whether self-cleavage is at least 0.3 here: A26U A49C
False

Tell me whether self-cleavage is at least 0.3 here: U2G A26G
False

Tell me whether self-cleavage is at least 0.3 here: A23U G40U
False

Tell me whether self-cleavage is at least 0.3 here: A11C G54A
True

Tell me whether self-cleavage is at least 0.3 here: A41U U70A
True

Tell me whether self-cleavage is at least 0.3 here: A36C U67G
False

Tell me whether self-cleavage is at least 0.3 here: A23G G27U
False

Tell me whether self-cleavage is at least 0.3 here: C10U A36C
True

Tell me whether self-cleavage is at least 0.3 here: C6G U70A
True

Tell me whether self-cleavage is at least 0.3 here: A24C U67G
False

Tell me whether self-cleavage is at least 0.3 here: A23U A24C
True

Tell me whether self-cleavage is at least 0.3 here: U5G G34U
True

Tell me whether self-cleavage is at least 0.3 here: U8A U67C
False

Tell me whether self-cleavage is at least 0.3 here: U14G A45G
False

Tell me whether self-cleavage is at least 0.3 here: C6A C16A
True

Tell me whether self-cleavage is at least 0.3 here: G21C U60A
True

Tell me whether self-cleavage is at least 0.3 here: G25C A43G
False

Tell me whether self-cleavage is at least 0.3 here: G42A U52A
False

Tell me whether self-cleavage is at least 0.3 here: C16U U70C
True

Tell me whether self-cleavage is at least 0.3 here: A35C A71G
True

Tell me whether self-cleavage is at least 0.3 here: C10A G34A
True

Tell me whether self-cleavage is at least 0.3 here: U20A A64U
False

Tell me whether self-cleavage is at least 0.3 here: A35U A59U
False

Tell me whether self-cleavage is at least 0.3 here: C18U U70A
True

Tell me whether self-cleavage is at least 0.3 here: C18U G32A
False

Tell me whether self-cleavage is at least 0.3 here: A24G A71U
True

Tell me whether self-cleavage is at least 0.3 here: A30C U58G
False

Tell me whether self-cleavage is at least 0.3 here: A31G A45C
False

Tell me whether self-cleavage is at least 0.3 here: U8A C48U
False

Tell me whether self-cleavage is at least 0.3 here: U33G G54U
False
